- System: 621-102 (TSC2-deficient)
- method: relative viability vs DMSO (fraction); higher = less cytotoxic
- settings: 1000 nM; serum: 0.1% FBS; 72 h
Counter-ions that a name gives are not always drawn.
property: relative viability

Tell me its relative viability given CN1CC[C@H](c2c(O)cc(O)c3c(=O)cc(-c4ccccc4Cl)oc23)[C@H](O)C1 [Flavopiridol hydrochloride] as the entry.
0.0076

Please give the documented relative viability of Nc1nc2[nH]cc(CCc3ccc(C(=O)N[C@@H](CCC(=O)O)C(=O)O)cc3)c2c(=O)[nH]1 [Pemetrexed disodium]
0.0251

# return recorded relative viability for input Cn1cc(-c2ccc3nnc(Sc4ccc5ncccc5c4)n3n2)cn1
0.991

Fill in relative viability for record CCc1cccc(CC)c1NC(=O)N1Cc2[nH]nc(NC(=O)c3ccc(N4CCN(C)CC4)cc3)c2C1
0.0612

In one line, give reported relative viability of the entry Cc1cnc(NC(=O)Nc2cc(Br)c(C)cc2OC[C@@H]2CNCCO2)cn1 .
0.0139

Please report relative viability for the following compound: CO[C@@H](C(=O)N1Cc2[nH]nc(NC(=O)c3ccc(N4CCN(C)CC4)cc3)c2C1)c1ccccc1
0.0757

Quote relative viability reported for C=C1C[C@@H]2[C@H](CC[C@]3(C)C(=O)CC[C@@H]23)[C@@]2(C)C=CC(=O)C=C12 please.
0.94

Given the compound Nc1ccn([C@@H]2O[C@H](CO)[C@@H](O)C2(F)F)c(=O)n1 [Gemcitabine Hydrochloride] , write its reported relative viability.
0.008

Fill in relative viability for record Cn1cc(CNCC2CCN(c3ncc(C(=O)NO)cn3)CC2)c2ccccc21
0.000673

---

- System: UMB1949 (TSC2-deficient);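 also: renal angiomyolipoma cell lines screened in 384-well plates, viability normalized per plate to DMSO-treated cells, each plate carrying 50 nM rapamycin and 1 µM staurosporine controls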
- method: relative viability vs DMSO (fraction); higher = less cytotoxic
- settings: 5000 nM; serum: 0.1% FBS; 72 h
Counter-ions that a name gives are not always drawn.
property: relative viability
Field format: numeric only.

Give the value of relative viability reported for the following: Cc1cc(Nc2cc(CN3CCOCC3)c3nc(C)c(Cc4ccc(Cl)cc4F)n3n2)n[nH]1
0.000916

// fetch relative viability given entry Cc1ccc([N+](=O)[O-])cc1S(=O)(=O)N(C)/N=C/c1cnc2ccc(Br)cn12 [PIK-75 Hydrochloride]
0.00221

Indicate the recorded relative viability value for this molecule: Cn1c(Nc2ccc(C(F)(F)F)cc2)nc2cc(Oc3ccnc(-c4ncc(C(F)(F)F)[nH]4)c3)ccc21 [RAF265]
0.00183

Kindly indicate its recorded relative viability. Item: Cc1[nH]c2ccccc2c1CCNCc1ccc(/C=C/C(=O)NO)cc1 [Panobinostat (LBH589)]
0.00261

---

- Tested on: 621-102 (TSC2-deficient)
- method: relative viability vs DMSO; higher = less cytotoxic
- settings: 0.1 µM; serum: 10% FBS; 72 h
Structures can show the parent of a compound that is named as a salt.
property: relative viability
Record the result as number plus unit.

Given CC(C)(C#N)c1cc(Cn2cncn2)cc(C(C)(C)C#N)c1 [Anastrozole (Arimidex)] , respond with its relative viability.
106%

Read the entry CN1CC[C@H](c2c(O)cc(O)c3c(=O)cc(-c4ccccc4Cl)oc23)[C@H](O)C1 [Flavopiridol HCl] and write its reported relative viability.
49.2%

Give the value of relative viability reported for the following: COc1cc(OC)c(OC)cc1C=O [Asaraldehyde]
96.2%

Return value of relative viability for input CCC[C@H](N[C@@H](C)C(=O)N1[C@H](C(=O)O)C[C@@H]2CCCC[C@@H]21)C(=O)OCC [Perindopril Erbumine] , no commentary.
104%

---

- Tested on: 621-103 (TSC2-rescued)
- method: relative viability vs DMSO; higher = less cytotoxic
- settings: 0.01 µM; serum: 10% FBS; 72 h
Counter-ions that a name gives are not always drawn.
property: relative viability (%)
Lab book: enter the figure in %, no units written.

Supply measured relative viability of NC(=O)c1ccc(N(C(N)=O)c2c(F)cccc2F)nc1-c1ccc(F)cc1F [VX-702] in your reply.
99.9

Indicate the recorded relative viability value for this compound: COc1ccc([C@]2(C#N)CC[C@@H](C(=O)O)CC2)cc1OC1CCCC1
97.1

Note relative viability for the compound shown: CC[C@@]1(O)C(=O)OCc2c1cc1n(c2=O)Cc2cc3c(CN(C)C)c(O)ccc3nc2-1 [Topotecan Hydrochloride]
102

Report relative viability, nothing else, for this compound: NC1(Cc2ccc(Cl)cc2)CCN(c2ncnc3[nH]ccc23)CC1
111

Look up and state reported relative viability for CCOC(=O)C1=C(COCCN)NC(C)=C(C(=O)OC)C1c1ccccc1Cl (centres undefined) [Amlodipine besylate]
99.4

For the compound CCOc1ccn(-c2ccc(F)cc2)c(=O)c1C(=O)Nc1ccc(Oc2ccnc(N)c2Cl)c(F)c1 , give its measured relative viability value.
98.9

Supply relative viability value. Item: Cc1ccc(-n2nc(C(C)(C)C)cc2NC(=O)Nc2ccc(OCCN3CCOCC3)c3ccccc23)cc1 [BIRB 796]
97.2

Note relative viability for the compound shown: Nc1nc(Nc2ccc(S(N)(=O)=O)cc2)nn1C(=O)c1c(F)cccc1F
106

Give the value of relative viability reported for the following: COc1ccc(-c2cc3c(C)nc(N)nc3n([C@H]3CC[C@H](OCCO)CC3)c2=O)cn1
88.1

---

- Tested on: 621-102 (TSC2-deficient)
- method: relative viability vs DMSO (fraction); higher = less cytotoxic
- settings: 1000 nM; serum: 0.1% FBS; 72 h
Could you please report measured relative viability for the items listed next?
Provide a numeric answer; units are not to be included.

Quote relative viability with test system 621-102 (TSC2-deficient) for C#Cc1cccc(Nc2ncnc3cc(OC)c(OCCCCCCC(=O)NO)cc23)c1
0.005

# return relative viability for COc1cccc2c1C(=O)c1c(O)c3c(c(O)c1C2=O)C[C@@](O)(C(=O)CO)C[C@@H]3O[C@H]1C[C@H](N)[C@H](O)[C@H](C)O1 , test system: 621-102 (TSC2-deficient)
0.00359

State measured relative viability of the compound Cn1cncc1[C@@](N)(c1ccc(Cl)cc1)c1ccc2c(c1)c(-c1cccc(Cl)c1)cc(=O)n2C with 621-102 (TSC2-deficient).
0.274

Please respond with reported relative viability (system 621-102 (TSC2-deficient)) for O=c1cc(N2CCOCC2)oc2c(-c3cccc4c3sc3ccccc34)cccc12 .
0.227

Under 621-102 (TSC2-deficient): report relative viability of Nc1cccc2c1C(=O)N(C1CCC(=O)NC1=O)C2=O (stereo not given) [Pomalidomide] .
0.985

---

Would you mind telling me the reported relative viability of each entry?
- System: 621-103 (TSC2-rescued)
- method: relative viability vs DMSO; higher = less cytotoxic
- settings: 10 µM; serum: 10% FBS; 72 h
Structures can show the parent of a compound that is named as a salt.
Expressed in %, but write only the number.

Return reported relative viability. Input compound: Cc1cnc(Nc2ccc(N3CCN(C)CC3)cc2)nc1Nc1cccc(S(=O)(=O)NC(C)(C)C)c1
1.33

Note relative viability for the compound shown: CC/C(=C(\c1ccccc1)c1ccc(OCCN(C)C)cc1)c1ccccc1 [Tamoxifen Citrate]
48.1

// Input: CCOc1ccccc1OCCN[C@H](C)Cc1ccc(OC)c(S(N)(=O)=O)c1 [Tamsulosin HCl] . Output its relative viability only.
98.4

Give the measured relative viability for CC[C@@]1(O)C(=O)OCc2c1cc1n(c2=O)Cc2cc3c(CN(C)C)c(O)ccc3nc2-1 [Topotecan Hydrochloride]
7.57

---

- Tested on: 621-102 (TSC2-deficient)
- method: relative viability vs DMSO; higher = less cytotoxic
- settings: 10 µM; serum: 10% FBS; 72 h
Structures can show the parent of a compound that is named as a salt.
Please go through the items and note down their relative viability.
Write the number in % without appending the unit.

Let me know recorded relative viability for O=c1n(CCCN2CCN(c3cccc(Cl)c3)CC2)nc2ccccn12 [Trazodone HCl] , thanks.
103

State, in one line, measured relative viability of CN(C)CC/C=C1/c2ccccc2Sc2ccc(Cl)cc21 [Chlorprothixene]
101

Give the reported value of relative viability for this record: C[C@]12CC[C@@H]3c4ccc(O)cc4C[C@@H](CCCCCCCCC[S+]([O-])CCCC(F)(F)C(F)(F)F)[C@H]3[C@@H]1CC[C@@H]2O (stereo partly drawn) [Fulvestrant]
113

Report relative viability for COC(=O)Nc1ccc(-c2nc(N3CCOCC3)c3cnn(C4CCN(Cc5cccnc5)CC4)c3n2)cc1 [WYE-687]
16.2

Return relative viability for the following compound: C[C@@H](Oc1cc(-c2cnn(C3CCNCC3)c2)cnc1N)c1c(Cl)ccc(F)c1Cl
10.7

Give relative viability for the following compound: O=C(O)c1ccc2c(c1)nc(Nc1cccc(Cl)c1)c1ccncc12 [CX-4945]
80.4

Query relative viability for O=C1Nc2ccccc2/C1=C1/Nc2ccccc2C1=O [Indirubin]
89.5

Answer with reported relative viability of CCOC(=O)C1=C(COCCN)NC(C)=C(C(=O)OC)C1c1ccccc1Cl (stereo not drawn) [Amlodipine besylate]
53.6
